Observed IC50 values for INF2 (Homo sapiens, UniProt Q27J81) are listed in what follows.
Your answer is read as µM, so omit the unit and give the number.

compound: O=C1C(=Cc2ccco2)C(=O)N(c2cccc(Br)c2)C(=S)N1c1ccccc1 [Compound 4]
study-system: INF2 (Homo sapiens, UniProt Q27J81)
Sequence (Q27J81 469-1249): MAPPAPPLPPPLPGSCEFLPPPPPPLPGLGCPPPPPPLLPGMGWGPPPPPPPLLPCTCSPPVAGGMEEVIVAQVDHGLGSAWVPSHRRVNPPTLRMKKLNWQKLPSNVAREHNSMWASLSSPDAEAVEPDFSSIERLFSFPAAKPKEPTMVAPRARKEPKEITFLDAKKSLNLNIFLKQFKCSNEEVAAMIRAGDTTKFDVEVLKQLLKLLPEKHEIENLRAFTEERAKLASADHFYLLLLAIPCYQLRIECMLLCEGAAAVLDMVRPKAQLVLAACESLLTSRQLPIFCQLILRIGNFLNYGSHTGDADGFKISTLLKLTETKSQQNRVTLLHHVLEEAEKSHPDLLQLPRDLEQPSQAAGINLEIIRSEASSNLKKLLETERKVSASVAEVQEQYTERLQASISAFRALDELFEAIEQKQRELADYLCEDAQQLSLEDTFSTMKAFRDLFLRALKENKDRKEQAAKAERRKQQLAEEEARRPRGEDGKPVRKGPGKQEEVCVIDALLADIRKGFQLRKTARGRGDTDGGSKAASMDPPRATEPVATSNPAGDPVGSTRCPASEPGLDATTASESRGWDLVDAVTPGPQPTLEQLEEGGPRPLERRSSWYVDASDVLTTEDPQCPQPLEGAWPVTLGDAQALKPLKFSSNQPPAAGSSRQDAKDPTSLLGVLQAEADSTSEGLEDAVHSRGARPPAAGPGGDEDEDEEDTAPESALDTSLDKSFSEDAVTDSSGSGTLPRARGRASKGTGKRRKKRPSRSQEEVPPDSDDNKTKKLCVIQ
property: IC50
measured-value: 4
//
compound: O=C1NC(=S)N(c2cccc(Br)c2)C(=O)C1=Cc1ccc(Cl)o1 [Compound 15]
study-system: INF2 (Homo sapiens, UniProt Q27J81)
property: IC50
measured-value: 4

Read the next record carefully.
Problem: Give IC50 (INF2 (Homo sapiens, UniProt Q27J81)) of the following compound: O=C1NC(=S)N(c2cccc(Br)c2)C(=O)C1=Cc1ccc(Br)o1 [Compound 16]
Solution: 7
